Measured values drawn from patent US20210283111A1 for this set.

Collected ATP6vd2 Fold Change from Control (Ave) values appear next to each entry.
- Tested on: osteoclast marker genes (Atp6v0d2, Trap, Mmp9, Cathepsin K, Dcstamp, and Oscar) in RANKL-stimulated RAW 264.7 cells
- assayOverview: Real-time RT-PCR of osteoclast marker gene expression
- Format: cell-based, Mouse
- conditions: RAW264.7 cells, RANKL + compound 400 nM, 4 days; Control 1.00, RANKL alone 4.69
Lab book: enter the figure in Fold Change from Control, no units written.

Field: example entries. Status: answers known.
compound	observedProperty	obsValue
CN(C)C(=O)CNC(=O)c1ccc2c(c1)nc(Nc1nc3ccc(C(F)(F)F)cc3s1)n2C [HPP-2]	ATP6vd2 Fold Change from Control (Ave)	3.09
C[C@H](O)CNC(=O)c1ccc2c(c1)nc(Nc1nc3ccc(OC(F)(F)F)cc3s1)n2C [HPP-3]	ATP6vd2 Fold Change from Control (Ave)	2.36

Answer with the recorded ATP6vd2 Fold Change from Control (Ave) for the compound listed here: COCCNC(=O)c1cnc2c(c1)nc(Nc1nc3ccc(OC(F)(F)F)cc3s1)n2C [HPP-1]
3.52

Answer with the recorded ATP6vd2 Fold Change from Control (Ave) for the compound listed here: Cn1c(Nc2nc3ccc(C(F)(F)F)cc3s2)nc2cc(C(=O)NCCOCCO)ccc21 [HPP-4]
2.59

----------
- Tested on: RANKL-stimulated RAW264.7 cells
- assayOverview: Resorption assay on bone resorption assay plate (calcium phosphate substrate)
- Assay type: cell-based, Mouse
- conditions: RANKL 100 ng/mL + compound 400 nM, 7 days, Control 0.00, RANKL alone 1.14
observedProperty: Ave of Resorbed Area per Filed (%)
Lab book: enter the figure in %, no units written.

Field: example entries. Status: answers known.
compound	observedProperty	unitSymbol	obsValue
Cn1c(Nc2nc3ccc(C(F)(F)F)cc3s2)nc2cc(C(=O)NCCOCCO)ccc21 [HPP-4]	Ave of Resorbed Area per Filed (%)	%	0.23
C[C@H](O)CNC(=O)c1ccc2c(c1)nc(Nc1nc3ccc(OC(F)(F)F)cc3s1)n2C [HPP-3]	Ave of Resorbed Area per Filed (%)	%	0.22
COCCNC(=O)c1cnc2c(c1)nc(Nc1nc3ccc(OC(F)(F)F)cc3s1)n2C [HPP-1]	Ave of Resorbed Area per Filed (%)	%	1.21

Proceed to the following item.
Answer with the recorded Ave of Resorbed Area per Filed (%) for the compound listed here: CN(C)C(=O)CNC(=O)c1ccc2c(c1)nc(Nc1nc3ccc(C(F)(F)F)cc3s1)n2C [HPP-2]
0.78

----------
Collected No. of TRAP-positive multinucleated cells (Cells/Well) values appear next to each entry.
- Tested on: RANKL-mediated osteoclastogenesis in RAW264.7 cells
- assayOverview: Osteoclastogenesis assay: TRAP staining of RANKL-stimulated RAW264.7 cells
- Type: cell-based, Mouse
- conditions: RANKL 100 ng/mL + compound 400 nM, 4 days, Control 0.00, RANKL alone 140.00

Field: example entries. Status: answers known.
structureNotation	obsValue
COCCNC(=O)c1cnc2c(c1)nc(Nc1nc3ccc(OC(F)(F)F)cc3s1)n2C	139.33 Cells/Well
CN(C)C(=O)CNC(=O)c1ccc2c(c1)nc(Nc1nc3ccc(C(F)(F)F)cc3s1)n2C	97.67 Cells/Well
C[C@H](O)CNC(=O)c1ccc2c(c1)nc(Nc1nc3ccc(OC(F)(F)F)cc3s1)n2C	65.00 Cells/Well

Proceed to the following item.
Recall the reported No. of TRAP-positive multinucleated cells (Cells/Well) of Cn1c(Nc2nc3ccc(C(F)(F)F)cc3s2)nc2cc(C(=O)NCCOCCO)ccc21 on RANKL-mediated osteoclastogenesis in RAW264.7 cells and write it down.
29.00 Cells/Well
